Taken from patent US20240376099A1.

subject of test: TLR7 (Homo sapiens)
Construct: Fresh blood was collected from normal human donors; endogenous in cells
Sequence (Q9NYK1 27-1049): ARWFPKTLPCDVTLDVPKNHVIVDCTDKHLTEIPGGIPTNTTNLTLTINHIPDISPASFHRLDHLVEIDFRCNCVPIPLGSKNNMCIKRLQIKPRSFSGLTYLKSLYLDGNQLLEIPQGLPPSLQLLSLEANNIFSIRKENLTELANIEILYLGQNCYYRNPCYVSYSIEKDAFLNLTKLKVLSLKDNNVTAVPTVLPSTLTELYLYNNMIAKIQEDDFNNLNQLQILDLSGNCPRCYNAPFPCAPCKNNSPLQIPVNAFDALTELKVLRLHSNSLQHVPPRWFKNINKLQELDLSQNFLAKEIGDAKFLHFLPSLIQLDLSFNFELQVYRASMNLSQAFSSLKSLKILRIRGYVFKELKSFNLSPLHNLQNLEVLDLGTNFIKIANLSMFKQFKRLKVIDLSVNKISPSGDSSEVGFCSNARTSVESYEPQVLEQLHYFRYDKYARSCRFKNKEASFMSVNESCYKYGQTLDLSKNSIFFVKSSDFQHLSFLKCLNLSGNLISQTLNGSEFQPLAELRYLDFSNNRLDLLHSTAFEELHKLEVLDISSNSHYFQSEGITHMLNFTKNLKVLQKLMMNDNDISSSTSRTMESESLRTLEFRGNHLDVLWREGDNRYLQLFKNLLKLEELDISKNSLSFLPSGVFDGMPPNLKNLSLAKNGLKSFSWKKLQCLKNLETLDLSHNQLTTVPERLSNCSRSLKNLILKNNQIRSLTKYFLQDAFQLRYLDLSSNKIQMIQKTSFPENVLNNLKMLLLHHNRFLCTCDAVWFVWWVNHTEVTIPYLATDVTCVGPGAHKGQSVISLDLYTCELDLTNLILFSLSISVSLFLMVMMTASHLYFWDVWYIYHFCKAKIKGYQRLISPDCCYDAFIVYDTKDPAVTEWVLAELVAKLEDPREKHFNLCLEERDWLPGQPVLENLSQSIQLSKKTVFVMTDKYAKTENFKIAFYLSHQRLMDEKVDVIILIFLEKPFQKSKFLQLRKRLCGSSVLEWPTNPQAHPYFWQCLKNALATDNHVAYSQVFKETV
test details: huPBMC TLR7 Antagonist IFNα Assay
setup conditions: human PBMCs stimulated with ssRNA40 10 μg/mL (DOTAP), 14-16 hrs; IFNα2b AlphaLISA read-out
quantity kind: IC50
Hi, when you answer, please include the unit after the number. Thanks!

| compound | measured value |
| --- | --- |
| Cc1nc(N2CCc3c(c(C)nn3CC34CCC(N5CCCC5)(CC3)CC4)C2)c2cn[nH]c2n1 [compound 30] | 10 nM |

Entry under test: Cc1cc(N2CCc3c(c(C)nn3CC34CCC(NCC(C)(C)O)(CC3)CC4)C2)c2cnn(C)c2n1 [compound 123] . Its IC50 was 24 nM

Entry under test: Cc1nc(N2CCc3c(c(C)nn3CC34CCC(N5CCCC5)(CC3)CC4)C2)c2cnn(C)c2n1 [compound 16] . Its IC50 was 25 nM

Entry under test: Cc1cc(N2CCc3c(c(C)nn3CC34CCC(NC(=O)CCN(C)C)(CC3)CC4)C2)c2cnn(C)c2n1 [compound 105] . Its IC50 was 14 nM

====

subject of test: TLR9 (Homo sapiens)
Construct: Fresh blood was collected from normal human donors; endogenous in cells
Sequence (Q9NR96 26-1032): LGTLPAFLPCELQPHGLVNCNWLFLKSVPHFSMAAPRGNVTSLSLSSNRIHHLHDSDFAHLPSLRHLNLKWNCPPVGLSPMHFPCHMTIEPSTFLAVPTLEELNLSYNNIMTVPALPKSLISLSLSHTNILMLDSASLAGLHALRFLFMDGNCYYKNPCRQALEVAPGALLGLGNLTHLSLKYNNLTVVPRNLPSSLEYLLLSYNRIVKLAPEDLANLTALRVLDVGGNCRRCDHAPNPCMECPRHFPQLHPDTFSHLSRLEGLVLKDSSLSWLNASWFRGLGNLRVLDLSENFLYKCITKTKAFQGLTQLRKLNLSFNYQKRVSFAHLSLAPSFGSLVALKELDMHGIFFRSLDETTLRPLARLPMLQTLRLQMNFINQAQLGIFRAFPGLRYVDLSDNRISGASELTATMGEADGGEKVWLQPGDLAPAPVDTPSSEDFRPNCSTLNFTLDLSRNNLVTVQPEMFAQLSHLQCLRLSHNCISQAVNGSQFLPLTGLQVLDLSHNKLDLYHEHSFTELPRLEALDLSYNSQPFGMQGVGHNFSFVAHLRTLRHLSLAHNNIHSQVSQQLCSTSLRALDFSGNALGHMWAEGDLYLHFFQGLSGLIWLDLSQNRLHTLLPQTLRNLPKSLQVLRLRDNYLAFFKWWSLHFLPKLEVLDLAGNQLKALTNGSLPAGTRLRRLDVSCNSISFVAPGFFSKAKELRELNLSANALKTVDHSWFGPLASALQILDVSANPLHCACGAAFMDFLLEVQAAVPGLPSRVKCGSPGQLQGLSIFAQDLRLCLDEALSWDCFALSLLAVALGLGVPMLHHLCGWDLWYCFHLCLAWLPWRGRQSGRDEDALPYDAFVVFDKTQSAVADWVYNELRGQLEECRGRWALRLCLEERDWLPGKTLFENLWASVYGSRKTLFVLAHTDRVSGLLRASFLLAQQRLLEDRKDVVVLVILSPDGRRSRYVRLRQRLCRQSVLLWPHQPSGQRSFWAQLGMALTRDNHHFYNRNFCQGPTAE
test details: huPBMC TLR9 Antagonist IFNα Assay
setup conditions: human PBMCs stimulated with ODN2216 0.3 μM, 14-16 hrs; IFNα2b AlphaLISA read-out
From the text: Compounds were generally serially diluted (1/3) in DMSO and plated on sterile 384 well tissue culture plates and stored until ready for use. Each ten-point dilution was typically plated in triplicate in parallel rows. Fresh blood was collected from normal human donors underwritten informed consent in heparinized syringes on the morning of the assay. […] Viable PBMCs were counted on a hemacytometer and kept on ice until ready for plating. […]
quantity kind: IC50 (nM)
Answer in nM, number only, no unit symbol.

Guide cases for IC50, answers given:
| compound | IC50 (nM) |
| --- | --- |
| Cc1cc(N2CCc3c(c(C)nn3CC34CCC(n5ccnc5)(CC3)CC4)C2)c2cnn(C)c2n1 [Compound No. 119] | 608 |
| Cc1cc(N2CCc3c(c(C)nn3CC34CCC(N5C[C@@H](O)[C@@H](O)C5)(CC3)CC4)C2)c2cnn(C)c2n1 [compound 74] | 1540 |
| Cc1cc(N2CCc3c(c(C)nn3CC34CCC(N(C)C5COC5)(CC3)CC4)C2)c2cnn(C)c2n1 [Compound No. 77] | 179 |

Shifting focus to the compound that follows.
Entry under test: CN[C@H](C)C(=O)NC12CCC(Cn3nc(C)c4c3CCN(c3cc(C)nc5c3cnn5C)C4)(CC1)CC2 [compound 117] . Its IC50 was 954

====

subject of test: TLR7 (Homo sapiens)
Construct: Fresh blood was collected from normal human donors; endogenous in cells
test details: huPBMC TLR7 Antagonist IFNα Assay
setup conditions: human PBMCs stimulated with ssRNA40 10 μg/mL (DOTAP), 14-16 hrs; IFNα2b AlphaLISA read-out
quantity kind: log10(IC50) (log10 of the value in nM)
Heads up, the numbers here are log10 of IC50 in nM units.

Guide cases for log10(IC50), answers given:
| structure as smiles | log10(IC50) |
| --- | --- |
| Cc1nc(N2CCc3c(c(C)nn3CC34CCC(NC(=O)C5CNC5)(CC3)CC4)C2)c2c(n1)c(C)nn2C | 2.09 |
| Cc1cc(N2CCc3c(c(C)nn3CC34CCC(NC5CCC5)(CC3)CC4)C2)c2cnn(C)c2n1 | 0.60 |
| Cc1cc(N2CCc3c(c(C)nn3CC34CCC(N5CC6(COC6)C5)(CC3)CC4)C2)c2cnn(C)c2n1 | 0.95 |
| Cc1nc(N2CCc3c(c(C)nn3CC34CCC(N5CCCC5)(CC3)CC4)C2)c2c(n1)c(C)nn2C | 2.41 |
| Cc1cc(N2Cc3cnn(CC45CCC(N)(CC4)CC5)c3C(C)(C)C2)c2cnn(C)c2n1 | 3.01 |
| Cc1cc(N2CCc3c(c(C)nn3CC34CCC(N5CCOC[C@H]5C)(CC3)CC4)C2)c2cnn(C)c2n1 | 0.90 |

Entry under test: `Cc1cc(N2CCc3c(c(C)nn3CC34CCC(N5CCO[C@@H](C)C5)(CC3)CC4)C2)c2cnn(C)c2n1` . Its log10(IC50) was 1.08
